Just for reference, patent US10207993B2 is where these values come from.

assay: in vivo; conditions: Balb/C, mouse, iv, 1 mg/kg
measured_attribute: Cmax (µM)
Numeric only. Scale: µM

Ask | Need Cmax of CO[C@@H](C(=O)NC1CCNCC1)c1ccccc1 , thanks.
Reply | 3.06

###

assay: in vivo; conditions: Beagle, dog, iv, 0.3 mg/kg
measured_attribute: half-life (h)
Dear colleague, please return just the value in h, with no unit written.

Ask | What value of measured half-life is listed for CO[C@@H](C(=O)NC1CCNCC1)c1ccccc1 ?
Reply | 3

###

assay: in vivo; settings: Balb/C, mouse
measured_attribute: bioavailability (%)
API: value field is a number in %; no unit string.

Ask | Form field: reported bioavailability of CO[C@@H](C(=O)NC1CCNCC1)c1ccccc1
Reply | 47

###

assay: in vivo; conditions: Balb/C, mouse, iv, 1 mg/kg
measured_attribute: Tmax
# output: numeric value plus its unit

Ask | Entry under review: CO[C@@H](C(=O)NC1CCNCC1)c1ccccc1 . Reported Tmax?
Reply | 0 h

###

test: in vivo; conditions: Balb/C, mouse, iv, 1 mg/kg
measured_attribute: clearance (mL/min/kg)
Give just the number in mL/min/kg; leave the unit off.

Ask | Return reported clearance; argument: CO[C@@H](C(=O)NC1CCNCC1)c1ccccc1
Reply | 1.33

###

experiment: in vivo; conditions: Balb/C, mouse, po, 10 mg/kg
measured_attribute: Cmax (µM)
Give the value, in units of µM, as a plain number.

Ask | Which Cmax reading was recorded for the compound CO[C@@H](C(=O)NC1CCNCC1)c1ccccc1 [Compound 1085] ?
Reply | 11.2

###

experiment: in vivo; settings: Balb/C, mouse, iv, 1 mg/kg
measured_attribute: half-life (h)
Enter your answer as a number in h; do not include the unit.

Ask | Which half-life reading was recorded for the compound CO[C@@H](C(=O)NC1CCNCC1)c1ccccc1 [Compound 1085] ?
Reply | 1.9

###

experiment: in vivo; details: Balb/C, mouse, iv, 1 mg/kg
measured_attribute: Vd (L/kg)
State the answer as a number, implicitly in L/kg.

Ask | // returns reported Vd for input CO[C@@H](C(=O)NC1CCNCC1)c1ccccc1
Reply | 0.22

###

assay: in vivo; settings: Beagle, dog, iv, 0.3 mg/kg
measured_attribute: Cmax (nM)
Return type: number; implicit unit nM.

Ask | May I ask what Cmax has been recorded for CO[C@@H](C(=O)NC1CCNCC1)c1ccccc1 ?
Reply | 2760

###

assay: in vivo; details: Balb/C, mouse, po, 10 mg/kg
measured_attribute: Tmax (min)
Give the quantity in min, number only.

Ask | For the compound shown here, CO[C@@H](C(=O)NC1CCNCC1)c1ccccc1 , give the reported Tmax.
Reply | 12

###

assay: in vivo; details: Beagle, dog
measured_attribute: bioavailability (%)
# value in %; strip the unit string

Ask | Name the recorded bioavailability for CO[C@@H](C(=O)NC1CCNCC1)c1ccccc1 .
Reply | 57

###

test: in vivo; settings: Beagle, dog, po, 3 mg/kg
measured_attribute: Cmax (µM)
Field: numeric (µM). Do not append units.

Ask | Dear colleague, I am looking for the recorded Cmax of the following compound: CO[C@@H](C(=O)NC1CCNCC1)c1ccccc1
Reply | 3.77

###

assay: in vivo; conditions: Balb/C, mouse, po, 10 mg/kg
measured_attribute: half-life (h)
Just the number please, in h, no unit attached.

Ask | Request the reported half-life associated with CO[C@@H](C(=O)NC1CCNCC1)c1ccccc1
Reply | 2.8
